- Experimental Protocol: Cycloheximide Counterscreen for Small Molecule Inhibitors of Shiga Toxin; further: read at 38.3 µM for the half of the compounds with a filed dose; 0% is about no effect
- Condition Set: cell reporter, cycloheximide protein synthesis inhibition counterscreen
Among all 300,000 compounds or so, about 37,000 (12%) were called active. No stated cut-off is given here; in the data, active means max response mostly above about 13% (no sharp cut-off); inactive means mostly below about 14%. The entries come from a sample that favours actives as a whole.
Choose the fitting class; nothing outside active, inactive is accepted.

CN(C(=O)CSc1nncc2ccccc12)C1CCCCC1 active
Nc1nnc(SCn2nnc3ccccc3c2=O)s1 inactive
O=c1c2ccccc2nnn1CSc1nnnn1-c1ccccc1 active
CN(C(=O)COc1ncnc2c1cnn2-c1ccccc1)C1CCCCC1 inactive

INPUT: Recorded test call requested for CN(C(=O)CCn1c(=S)oc2ccccc21)C1CCCCC1
OUTPUT: inactive

INPUT: Recorded test call requested for CC(=O)c1cccc(-n2nnnc2SCC(=O)NNC(=O)C2CCCCC2)c1
OUTPUT: inactive

----------
- Experimental Protocol: Cycloheximide Counterscreen for Small Molecule Inhibitors of Shiga Toxin; further: read at 38.3 µM for the half of the compounds with a filed dose; 0% is about no effect
- Condition Set: cell reporter, cycloheximide protein synthesis inhibition counterscreen
Hit rate of the full screen: of about 300,000 compounds, about 37,000 (12%) were called active. No stated cut-off is given here; in the data, active means max response mostly above about 13% (no sharp cut-off); inactive means mostly below about 14%. This excerpt belongs to a sample that is enriched for actives.
Choose the fitting class; nothing outside y = active, n = inactive is accepted.

INPUT: Recorded test call requested for O=C(CC1CCCCC1)NCc1ccco1
OUTPUT: n

INPUT: Recorded test call requested for COc1ccc(OC)c(S(=O)(=O)N(C)CC(=O)N2CCN(c3ccccc3)CC2)c1
OUTPUT: n

INPUT: Recorded test call requested for Cc1ccc(SCCC(=O)NC(C(C)C)C(C)C)cc1
OUTPUT: n

INPUT: Recorded test call requested for O=C(Nn1cnnc1)c1cc(Cl)ccc1Cl
OUTPUT: n

INPUT: Recorded test call requested for CSc1nnc(CNC(=O)c2ccccc2)n1-c1ccc(F)cc1
OUTPUT: n

INPUT: Recorded test call requested for O=C(CNC(=O)c1ccccc1)NCC(=O)OCC(=O)c1ccccc1
OUTPUT: n

INPUT: Recorded test call requested for Cn1c(CC(=O)Nc2ccc(F)cc2)nnc1SCC(=O)NC1CCCCC1
OUTPUT: n

----------
- Experimental Protocol: Cycloheximide Counterscreen for Small Molecule Inhibitors of Shiga Toxin; further: read at 38.3 µM for the half of the compounds with a filed dose; 0% is about no effect
- Condition Set: cell reporter, cycloheximide protein synthesis inhibition counterscreen; hits give high values
Hit rate of the full screen: of about 300,000 compounds, about 37,000 (12%) were called active. For the sample, actives were picked, then their nearest neighbours and some compounds at random.
Measured Property: max response (%)
Give bare numbers, in %.

Below are worked cases with known answers.
Compound	Endpoint Unit	Val
CCOC(=O)CN(C)S(=O)(=O)c1ccc(-c2cc(C(=O)OC)sc2C(F)(F)F)cc1	%	4.79
Cc1coc2c(O)cc3c(c12)OC1(N2CCCCC2)C(=O)NCCCC31 (stereo not drawn)	%	-0.492
CSc1ccc(C#N)cc1NC(=O)c1cccc(Cl)c1	%	-1.93
N#Cc1ccccc1NC(=O)c1cccc(COc2ccc(Cl)cc2Cl)c1	%	116
c1ccc(CN=C2Nc3ccccc3CS2)nc1	%	36.1
CCn1c(SCC(=O)NC2=NCCS2)nnc1C(C)NC(=O)c1ccccc1F (stereo not drawn)	%	-2.33
Cc1ccc(N2CCN(C(=O)c3cccs3)CC2)c(C)c1	%	1.82
N#C/C(=C\c1ccc(N2CCOCC2)o1)C(=O)N1CCOCC1	%	1.71
O=C(Nc1ccnn1C1CCN(C/C=C/c2ccc(F)cc2)CC1)C1CCCC1	%	-1.88
CCN(CC(=O)N1CCCC1)S(=O)(=O)c1ccc(F)cc1	%	-0.599

Take each entry in turn and give its max response.
1. O=C(Oc1ccc(F)cc1)N1CCOCC1
2. C=CCNc1cnn(-c2ccc(C)cc2)c(=O)c1Cl
3. COC1=C/C(=C/c2c(N)n3nc(CC(=O)N4CCOCC4)sc3nc2=O)C=CC1=O
4. Cc1ccc(Oc2cnn(-c3ccccc3)c(=O)c2Br)cc1
5. CCOC(=O)Cn1c(=O)n(Cc2ccc(OC)cc2)c(=O)c2cccnc21
6. O=C(NCc1ccccc1)C1=C[C@@H](C2CCCCC2)C[C@@H](OCc2ccc(CO)cc2)O1
7. NC(=O)C1CCCN(CC(=O)N2CCN(c3ccccc3)CC2)C1 (stereo not drawn)

OUTPUT:
1: -1.5; 2: 66.7; 3: 21.2; 4: 12.3; 5: -5.57; 6: -2.03; 7: -4.9

Take each entry in turn and give its max response.
1. CCCn1cc(S(=O)(=O)c2ccc(C)cc2)c(=O)c2cc(OCC)ccc21
2. CC(=O)c1ccc(OC(=O)N2CCOCC2)cc1
3. CC(C)CC(=O)Nc1nnc(S(=O)(=O)N(C)c2ccc(Cl)cc2)s1
4. COC(=O)c1cc2c(ccn2C)n1C

OUTPUT:
1. -2.9
2. 11.8
3. -2.39
4. -8.1

Take each entry in turn and give its max response.
1. CCc1cc(=O)oc2c(C)c(OCC(=O)N3CC[C@@]4(O)CCCC[C@H]4C3)ccc12
2. CC1=C(C(=O)NC2CC(C)(C)Cc3c2cnn3-c2ccc(C)cc2)OCCO1 (stereo not drawn)

OUTPUT:
1. -0.987
2. 10.7
